These measurements were taken from patent US4014909A.

# System: granuloma
# experimentalProtocol: Anti-proliferative (anti-granulomatous) activity, cotton pellet granuloma
# Type: in vivo, rat (Wistar, male)
# protocolConditions: rat, cotton pellet impregnated with product, 6 days
readoutName: ED50 anti-proliferative activity

CC(=O)OCC(=O)[C@@]1(O)CC[C@H]2[C@@H]3CCC4=CC(=O)C=C[C@]4(C)[C@H]3[C@@H](O)C[C@@]21C [Prednisolone (acetate), reference compound]; 2 mg/pellet
C[C@@H]1C[C@H]2[C@@H]3CCC4=CC(=O)C=C[C@]4(C)[C@@]3(F)[C@@H](O)C[C@]2(C)[C@@]1(O)C(=O)CSC(=O)c1ccc(F)cc1; 0.5 mg/pellet
CCCCCCC(=O)SCC(=O)[C@@]1(O)[C@H](C)C[C@H]2[C@@H]3CCC4=CC(=O)C=C[C@]4(C)[C@@]3(F)[C@@H](O)C[C@@]21C; 0,5 mg/pellet
CC(=O)OCC(=O)[C@@]1(O)CC[C@H]2[C@@H]3CCC4=CC(=O)CC[C@]4(C)[C@H]3[C@@H](O)C[C@@]21C [Hydrocortisone (acetate), Hydrocortisone acetate, reference compound]; 1.05 mg/pellet
C[C@]12C=CC(=O)C=C1CC[C@@H]1[C@@H]2[C@@H](O)C[C@@]2(C)[C@H]1CC[C@]2(O)C(=O)CSC(=O)c1ccc(F)cc1; 0.5 mg/pellet
CC(C)(C)C(=O)SCC(=O)[C@@]1(O)CC[C@H]2[C@@H]3CCC4=CC(=O)C=C[C@]4(C)[C@H]3[C@@H](O)C[C@@]21C; 0,44 mg/pellet
